Each record here notes measured pIC50.
biological target: Glucocorticoid receptor (Homo sapiens); experiment: GR-Mediated Antagonist Activity Assay and IL-6 Repression Assay; details: pH 7.5
pIC50: −log10 of the molar value.

{"columns": ["Compound structure string", "pIC50"],
 "data": [
  ["COc1c(O)ccc2c1-c1ccc3c(c1C(=Cc1sccc1C(=O)C1CCCCC1)O2)C(C)=CC(C)(C)N3", 9.00],
  ["COc1c(O)ccc2c1-c1ccc3c(c1/C(=C/c1sccc1[C@H](O)C(F)(F)F)O2)C(C)=CC(C)(C)N3", 9.70]
]}

----------
target: Glucocorticoid receptor (Homo sapiens, UniProt P04150); assay: GR-Mediated Antagonist Activity Assay and IL-6 Repression Assay; settings: pH 7.5
Sequence (P04150 whole entry): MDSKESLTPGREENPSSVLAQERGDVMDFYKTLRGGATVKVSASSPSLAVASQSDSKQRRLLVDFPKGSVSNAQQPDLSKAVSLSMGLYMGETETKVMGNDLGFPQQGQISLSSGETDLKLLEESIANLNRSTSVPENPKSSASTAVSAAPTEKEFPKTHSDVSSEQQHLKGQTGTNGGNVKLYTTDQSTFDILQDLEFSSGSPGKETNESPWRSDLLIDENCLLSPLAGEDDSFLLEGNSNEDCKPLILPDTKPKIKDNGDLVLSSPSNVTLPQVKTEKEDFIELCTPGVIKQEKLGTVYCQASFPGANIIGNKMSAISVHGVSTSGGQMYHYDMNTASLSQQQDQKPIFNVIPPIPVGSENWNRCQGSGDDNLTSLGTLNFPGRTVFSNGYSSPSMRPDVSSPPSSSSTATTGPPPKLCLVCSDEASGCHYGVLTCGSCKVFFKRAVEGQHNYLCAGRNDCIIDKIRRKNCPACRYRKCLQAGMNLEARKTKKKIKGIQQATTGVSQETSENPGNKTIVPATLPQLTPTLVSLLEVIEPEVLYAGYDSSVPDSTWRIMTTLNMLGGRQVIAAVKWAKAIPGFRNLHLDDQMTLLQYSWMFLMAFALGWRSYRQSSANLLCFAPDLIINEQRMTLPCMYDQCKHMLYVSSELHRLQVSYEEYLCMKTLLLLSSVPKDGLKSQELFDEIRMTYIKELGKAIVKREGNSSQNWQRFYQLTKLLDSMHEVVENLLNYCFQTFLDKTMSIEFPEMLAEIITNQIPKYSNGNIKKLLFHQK
pEC50: −log10 of the molar value.
Value type: pEC50

{"columns": ["Compound structure string", "Value type", "Observed"],
 "data": [
  ["COc1c(O)ccc2c1-c1ccc3c(c1/C(=C/c1sccc1[C@H](O)C(F)(F)F)O2)C(C)=CC(C)(C)N3", "pEC50", 9.70],
  ["COc1c(O)ccc2c1-c1ccc3c(c1/C(=C/c1sccc1[C@@H](O)C(F)(F)F)O2)C(C)=CC(C)(C)N3", "pEC50", 8.85]
]}
